system: Staphylococcus sp.; experiment: in vitro antibacterial evaluation, MIC by broth dilution; type: cell-based; details: broth dilution, 18 hours at 35° C.; strain GC 3051
assay_readout: MIC Staphylococcus aureus (GC 3051) (µg/mL)
Kindly answer with a numeric value in µg/mL, unit omitted.

Lookup: Report MIC Staphylococcus aureus (GC 3051) for CC(c1ccccc1)C1NC(=O)CNC(=O)C(CO)NC(=O)C(C(O)C2CNC(=N)N2C2OC(CO)C(O)C(O)C2O)NC(=O)C(C(O)C2CNC(=N)N2)NC(=O)C(Cc2ccc(OC3OC(CO)C(OC4OC5COC(c6ccc(C=Cc7ccccc7)cc6)OC5C(O)C4O)C(O)C3O)cc2)NC1=O (stereo not shown)
Found: 4

Lookup: Report MIC Staphylococcus aureus (GC 3051) for COc1ccc2cc(COC3C(OC4C(CO)OC(Oc5ccc(CC6NC(=O)C(C(C)c7ccccc7)NC(=O)CNC(=O)C(CO)NC(=O)C(CC7CNC(=N)N7C7OC(CO)C(O)C(O)C7O)NC(=O)C(CC7CNC(=N)N7)NC6=O)cc5)C(O)C4O)OC(CO)C(O)C3O)ccc2c1 (stereo not shown) [Example 245c]
Found: 128

Lookup: Report MIC Staphylococcus aureus (GC 3051) for CC(c1ccccc1)C1NC(=O)CNC(=O)C(CO)NC(=O)C(C(O)C2CNC(=N)N2C2OC(CO)C(O)C(O)C2O)NC(=O)C(C(O)C2CNC(=N)N2)NC(=O)C(Cc2ccc(OC3OC(CO)C(OC4OC(CO)C(O)C5OC(CC67CC8CC(CC(C8)C6)C7)OC45)C(O)C3O)cc2)NC1=O (stereo not shown)
Found: 2

Lookup: Report MIC Staphylococcus aureus (GC 3051) for CC(c1ccccc1)C1NC(=O)CNC(=O)C(CO)NC(=O)C(C(O)C2CNC(=N)N2C2OC(CO)C(O)C(O)C2O)NC(=O)C(C(O)C2CNC(=N)N2)NC(=O)C(Cc2ccc(OC3OC(CO)C(OC4OC(COCC=Cc5ccccc5)C(O)C(O)C4O)C(O)C3O)cc2)NC1=O (stereo not shown)
Found: 8

###

test system: Enterococcus sp.; test: in vitro antibacterial evaluation, MIC by broth dilution; assay type: cell-based; details: broth dilution, 18 hours at 35° C.
assay_readout: MIC Enterococcus faecalis (GC 2242) (µg/mL)
Kindly answer with a numeric value in µg/mL, unit omitted.

{"compound": "CCCCCC(=O)OCC1OC(Oc2ccc(CC3NC(=O)C(C(C)c4ccccc4)NC(=O)CNC(=O)C(CO)NC(=O)C(C(O)C4CNC(=N)N4C4OC(CO)C(O)C(O)C4O)NC(=O)C(C(O)C4CNC(=N)N4)NC3=O)cc2)C(O)C(O)C1OC1OC(CO)C(O)C(O)C1O (stereo not shown) [Example 95a]", "measured": 16}
{"compound": "CC(c1ccccc1)C1NC(=O)CNC(=O)C(CO)NC(=O)C(C(O)C2CNC(=N)N2C2OC(CO)C(O)C(O)C2O)NC(=O)C(C(O)C2CNC(=N)N2)NC(=O)C(Cc2ccc(OC3OC(CO)C(OC4OC(CO)C(OCC=Cc5ccc(N(C)C)cc5)C(O)C4O)C(O)C3O)cc2)NC1=O (stereo not shown) [Example 243a]", "measured": 32}
{"compound": "CC(c1ccccc1)C1NC(=O)CNC(=O)C(CO)NC(=O)C(C(O)C2CN(c3ncccn3)C(=N)N2C2OC(CO)C(O)C(O)C2O)NC(=O)C(C(O)C2CNC(=Nc3ncccn3)N2)NC(=O)C(Cc2ccc(OC3OC(CO)C(OC4OC5COC6(OC5C(O)C4O)C4CC5CC(C4)CC6C5)C(O)C3O)cc2)NC1=O (stereo not shown) [Example 228]", "measured": 32}

Lookup: Report MIC Enterococcus faecalis (GC 2242) for CC(c1ccccc1)C1NC(=O)CNC(=O)C(CO)NC(=O)C(C(O)C2CNC(=N)N2C2OC(CO)C(O)C(O)C2O)NC(=O)C(C(O)C2CNC(=N)N2)NC(=O)C(Cc2ccc(OC3OC(CO)C(OC4OC5COC6(CCCCC6(C)C)OC5C(O)C4O)C(O)C3O)cc2)NC1=O (stereo not shown) [Example 205]
Found: 4

Lookup: Report MIC Enterococcus faecalis (GC 2242) for CC(c1ccccc1)C1NC(=O)CNC(=O)C(CO)NC(=O)C(CC2CNC(=N)N2C2OC(CO)C(O)C(O)C2O)NC(=O)C(CC2CNC(=N)N2)NC(=O)C(Cc2ccc(OC3OC(CO)C(OC4OC(COCc5ccc(OCc6ccccc6)cc5)C(O)C(O)C4O)C(O)C3O)cc2)NC1=O (stereo not shown) [Example 246]
Found: 16
